Test system: PBMC
run_parameters: 12.5 µM
measured_parameter: Average (percentage cell inhibition), Mastoparan PBMC (%)
State the answer as a number, implicitly in %.

Look over these answered cases.
{"line_notation": "CC[C@H](C)[C@H](N)C(=O)N[C@@H](CC(N)=O)C(=O)N[C@@H](CC(C)C)C(=O)NCC(=O)N[C@@H](C)C(=O)N[C@@H](CC(C)C)C(=O)N[C@@H](C)C(=O)N[C@@H](C)C(=O)N[C@@H](CC(C)C)C(=O)N[C@@H](C)C(=O)N[C@@H](CCCCN)C(=O)N[C@@H](CCCCN)C(=O)N[C@H](C(=O)N[C@@H](CC(C)C)C(N)=O)[C@@H](C)CC", "units_symbol": "%", "recorded_value": 15.8704}
{"line_notation": "CC[C@H](C)[C@H](NC(=O)[C@H](CCCCN)NC(=O)[C@H](CCCCN)NC(=O)[C@H](C)NC(=O)[C@H](CC(C)C)NC(=O)[C@H](C)NC(=O)[C@H](C)NC(=O)[C@H](CC(C)C)NC(=O)[C@H](C)NC(=O)[C@H](CCCCN)NC(=O)[C@H](CC(C)C)NC(=O)[C@H](CC(N)=O)NC(=O)[C@H](C)N)C(=O)N[C@@H](CC(C)C)C(N)=O", "units_symbol": "%", "recorded_value": 5.463}
{"line_notation": "CC[C@H](C)[C@H](N)C(=O)N[C@@H](CC(N)=O)C(=O)N[C@@H](CC(C)C)C(=O)N[C@@H](CCCCN)C(=O)N[C@@H](C)C(=O)N[C@@H](Cc1c[nH]cn1)C(=O)N[C@@H](C)C(=O)N[C@@H](C)C(=O)N[C@@H](CC(C)C)C(=O)N[C@@H](C)C(=O)N[C@@H](CCCCN)C(=O)N[C@@H](CCCCN)C(=O)N[C@H](C(=O)N[C@@H](CC(C)C)C(N)=O)[C@@H](C)CC", "units_symbol": "%", "recorded_value": -12.6494}
{"line_notation": "CC[C@H](C)[C@H](N)C(=O)N[C@@H](CC(N)=O)C(=O)N[C@@H](CC(C)C)C(=O)N[C@@H](CCCCN)C(=O)N[C@@H](C)C(=O)N[C@@H](CC(C)C)C(=O)N[C@@H](Cc1c[nH]c2ccccc12)C(=O)N[C@@H](C)C(=O)N[C@@H](CC(C)C)C(=O)N[C@@H](C)C(=O)N[C@@H](CCCCN)C(=O)N[C@@H](CCCCN)C(=O)N[C@H](C(=O)N[C@@H](CC(C)C)C(N)=O)[C@@H](C)CC", "units_symbol": "%", "recorded_value": 70.534}

response.value for `CC[C@H](C)[C@H](N)C(=O)N[C@@H](CC(N)=O)C(=O)N[C@H](C(=O)N[C@@H](CCCCN)C(=O)N[C@@H](C)C(=O)N[C@@H](CC(C)C)C(=O)N[C@@H](C)C(=O)N[C@@H](C)C(=O)N[C@@H](CC(C)C)C(=O)N[C@@H](C)C(=O)N[C@@H](CCCCN)C(=O)N[C@@H](CCCCN)C(=O)N[C@H](C(=O)N[C@@H](CC(C)C)C(N)=O)[C@@H](C)CC)[C@@H](C)O` (field: Average (percentage cell inhibition), Mastoparan PBMC) = 8.955

----------
System: PBMC
run_parameters: 12.5 µM
measured_parameter: Average (percentage cell inhibition), Mastoparan PBMC

{"line_notation": "CC[C@H](C)[C@H](N)C(=O)N[C@@H](CC(N)=O)C(=O)N[C@@H](CC(C)C)C(=O)N[C@@H](CCCCN)C(=O)N[C@@H](CO)C(=O)N[C@@H](CC(C)C)C(=O)N[C@@H](C)C(=O)N[C@@H](C)C(=O)N[C@@H](CC(C)C)C(=O)N[C@@H](C)C(=O)N[C@@H](CCCCN)C(=O)N[C@@H](CCCCN)C(=O)N[C@H](C(=O)N[C@@H](CC(C)C)C(N)=O)[C@@H](C)CC", "recorded_value": "9.929%"}

Then this compound:
`CC[C@H](C)[C@H](N)C(=O)N[C@@H](CC(N)=O)C(=O)N[C@@H](CC(C)C)C(=O)N[C@@H](CCCCN)C(=O)N[C@@H](C)C(=O)N[C@@H](CC(C)C)C(=O)N[C@@H](C)C(=O)N[C@@H](C)C(=O)N[C@@H](CC(C)C)C(=O)N[C@@H](C)C(=O)N[C@@H](CCCCN)C(=O)NCC(=O)N[C@H](C(=O)N[C@@H](CC(C)C)C(N)=O)[C@@H](C)CC` yielded Average (percentage cell inhibition), Mastoparan PBMC of 13.7945%
